- Measured On: Major prion protein (Homo sapiens) (UniProt P04156)
- Assay Summary: reduces human prion protein on the cell surface, primary screen, cell-based, TR-FRET (AID 720596); further: 0% = median of the test wells and 100% = reference compound wells
- Measurement Conditions: cell surface PrPC, TR-FRET read-out; at 13.8 µM; stronger effect = higher value
Out of some 370,000 compounds screened, about 1,600 (0.43%) were called active. The list comes from a sample in which actives are over-represented; it also holds close analogues and randomly drawn compounds.
Observed Property: inhibition (%)
Quick note: give the figure in %, leave out the unit.

// known answers, use as guide
# Molecule, inhibition / %
records = [
    ("Cc1cccc(CS(=O)(=O)c2ncc(Cl)c(C(=O)Nc3ccc(F)cc3)n2)c1", 54.3),
    ("Cc1cccc(NC(=O)c2cc3c(C)nn(-c4ccccc4)c3s2)c1", -2.71),
    ("CC(=O)N1C[C@@H](CO)[C@@H](N(C)C(=O)c2ccco2)C[C@H]1c1ccccc1", -3.63),
    ("Cc1cccc(NC(=O)c2nc(S(=O)(=O)Cc3ccccc3)ncc2Cl)c1", 70.4),
]

Indicate its recorded inhibition; the molecule in question is "Cc1cccc(C(=O)Nc2c(-c3ccc(F)cc3)nc3ncccn23)c1" 0.67

Give inhibition for the following molecule: "COc1ccc(C)cc1NC(=O)CNCc1cccs1" 0.34

State its inhibition: "CCCCc1nc2cc(C(=O)NCCc3cnn(C)c3)ccc2o1" -7.17

Specify measured inhibition for "CCN(CC)c1ccc(C(=O)NNC(=O)CCc2nc3ccccc3c(=O)[nH]2)cc1" . 1.99

Please supply the value of reported inhibition for the item CC(C)N(Cc1nc(-c2ccc3c(c2)OCO3)no1)CC1CCC(=O)N1 (stereo not given) 7.11

Supply recorded inhibition for "CCc1nc(SCC(=O)NNC(=O)c2ccc(C)cc2)c2ccccc2n1" here. 97.6

---

Below, each of the compounds is paired with its reported inhibition value.
- Measured On: Major prion protein (Homo sapiens) (UniProt P04156)
- Assay Summary: reduces human prion protein on the cell surface, primary screen, cell-based, TR-FRET (AID 720596); further: 0% = median of the test wells and 100% = reference compound wells
- Measurement Conditions: cell surface PrPC, TR-FRET read-out; at 13.8 µM; stronger effect = higher value
Among all 370,000 compounds or so, about 1,600 (0.43%) were called active. This is one part of a sample in which actives are shown more often than they occur.
Give just the number in %; leave the unit off.

# Compound, Observed Measurement
data = [
    ("COCn1c(C(O)c2ccccc2)cc2ccccc21 (centres undefined)", 6.96),
]

Input "CC(=O)Nc1cccc(OCC(=O)/C=C2\N(C)c3ccccc3C2(C)C)c1" , output reported inhibition. 29.7

Please indicate inhibition recorded for "CCc1c(N=O)c(-c2ccccc2)n(O)[n+]1[O-]" -1.69

Indicate the recorded inhibition value for this compound: "O=C(Nc1nc2ccc(Cl)cc2s1)c1cc(-c2ccc(Cl)cc2)nc2ccccc12" 6.81

Answer with the recorded inhibition of "C=CCC[C@@H](CCCCC)OC(=O)/C=C/[C@@H](O)[C@H](O)C[C@H](O)CC=C" only. -5.85

Please report inhibition for the following compound: "CCCn1c(=S)[nH]c2ccc(C(F)(F)F)cc21" 12.2

Retrieve inhibition measured for "Oc1c(Cl)cc(Cl)c(Cl)c1Cc1c(O)c(Cl)cc(Cl)c1Cl" and print it. 28.9

Item "CC(C)(C)c1ccc(C(=O)Nc2cc(Cl)c(Br)cc2C(=O)O)cc1" : provide inhibition 21

Identify measured inhibition corresponding to "N#Cc1ccc(-c2nc3c(Cl)cc(C(F)(F)F)cn3c2Cc2ccccc2C(F)(F)F)cc1" 6.77

Quote inhibition reported for "CN1CCn2cnc(C(=O)NCC(=O)OC(C)(C)C)c2C1=O" please. -0.34

Provide measured inhibition value, entry: "O=C(N/N=C/c1c(O)n(C2CC2)c(=S)[nH]c1=O)c1ccccc1Cl" 6.86

Look up inhibition of "COc1ccc(-c2c(C)cc3oc(=O)cc(-c4ccccc4)c3c2C)cc1C=O" and report it. 4.67

Identify measured inhibition corresponding to "CCN(CC(=O)NCc1cccs1)C(=O)/C=C/c1ccc(C)cc1" -4.17

Complete the entry with inhibition for "Cc1ccc(Cc2cncc(O)c2)cc1S(=O)(=O)O" -7.2

Specify inhibition for "CC12CN(Cc3ccccc3)CC(C)(CN(Cc3ccccc3)C1)C2=NO" and stop. -7.09

Using the record for "O/N=C(\C[n+]1ccccc1)c1ccc(Br)cc1" , state its measured inhibition. 6.16

Annotate the compound COCCNC(=O)C1(C)CCCN(Cc2cccc(F)c2)C1 (centres undefined) with its measured inhibition. 10.6

Provide one value: measured inhibition of "Cc1cc2cc(CNC(=O)c3cccs3)ccc2[nH]1" 7.85

Answer with reported inhibition of "CCN(CC(=O)NCc1ccc(Cl)cc1)C(=O)CSc1ccccc1" 9.76

Supply measured inhibition of "CCOC(=O)c1c(-c2ccccc2)oc2ccc(OC(=O)N(C)C)cc12" in your reply. -3.58

# return recorded inhibition for entry "CCN(c1ccccc1)S(=O)(=O)c1ccc2[nH]c(=O)[nH]c2c1" -6.81

Recall and state the measured inhibition for "CC(=O)c1ccc(NC(=O)c2sc3nc4n(c(=O)c3c2C)CCCCC4)cc1" . 7.05

Recorded values, source PubChem BioAssay AID720596.
